target: H1047R PIK3CA enzyme (Homo sapiens, UniProt P42336, H1047R); experiment: ADP-Glo Biochemical PIK3CA Kinase Assay; settings: ADP-Glo biochemical PIK3CA kinase assay
Sequence (P42336 whole entry H1047R): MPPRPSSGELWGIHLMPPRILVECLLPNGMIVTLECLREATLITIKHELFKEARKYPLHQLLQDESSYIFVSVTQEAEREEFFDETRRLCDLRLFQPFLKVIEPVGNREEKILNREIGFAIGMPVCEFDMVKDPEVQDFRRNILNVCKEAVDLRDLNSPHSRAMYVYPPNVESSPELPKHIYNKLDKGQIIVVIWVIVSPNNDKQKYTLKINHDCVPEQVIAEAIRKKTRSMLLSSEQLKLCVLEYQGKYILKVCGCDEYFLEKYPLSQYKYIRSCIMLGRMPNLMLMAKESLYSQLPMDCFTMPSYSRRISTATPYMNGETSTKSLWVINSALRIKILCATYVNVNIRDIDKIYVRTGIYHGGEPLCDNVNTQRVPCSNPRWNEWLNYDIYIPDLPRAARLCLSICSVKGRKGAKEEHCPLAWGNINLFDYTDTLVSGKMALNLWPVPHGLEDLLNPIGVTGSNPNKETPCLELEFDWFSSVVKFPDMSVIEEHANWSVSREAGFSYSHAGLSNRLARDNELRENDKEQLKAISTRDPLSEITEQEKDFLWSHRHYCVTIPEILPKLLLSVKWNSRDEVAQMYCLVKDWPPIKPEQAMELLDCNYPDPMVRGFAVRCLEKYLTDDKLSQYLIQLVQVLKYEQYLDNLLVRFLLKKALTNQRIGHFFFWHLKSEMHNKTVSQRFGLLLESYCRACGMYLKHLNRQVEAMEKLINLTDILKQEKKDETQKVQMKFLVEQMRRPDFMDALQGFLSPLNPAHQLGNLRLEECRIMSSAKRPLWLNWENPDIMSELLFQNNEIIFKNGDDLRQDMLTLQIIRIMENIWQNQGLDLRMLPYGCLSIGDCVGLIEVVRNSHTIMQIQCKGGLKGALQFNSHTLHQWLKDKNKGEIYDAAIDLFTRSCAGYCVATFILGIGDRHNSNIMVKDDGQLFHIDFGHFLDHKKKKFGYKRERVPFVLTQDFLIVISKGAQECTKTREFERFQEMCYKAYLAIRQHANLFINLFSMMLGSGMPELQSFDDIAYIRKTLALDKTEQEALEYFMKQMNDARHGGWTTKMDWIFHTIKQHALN
Sequence (P27986 whole entry partner): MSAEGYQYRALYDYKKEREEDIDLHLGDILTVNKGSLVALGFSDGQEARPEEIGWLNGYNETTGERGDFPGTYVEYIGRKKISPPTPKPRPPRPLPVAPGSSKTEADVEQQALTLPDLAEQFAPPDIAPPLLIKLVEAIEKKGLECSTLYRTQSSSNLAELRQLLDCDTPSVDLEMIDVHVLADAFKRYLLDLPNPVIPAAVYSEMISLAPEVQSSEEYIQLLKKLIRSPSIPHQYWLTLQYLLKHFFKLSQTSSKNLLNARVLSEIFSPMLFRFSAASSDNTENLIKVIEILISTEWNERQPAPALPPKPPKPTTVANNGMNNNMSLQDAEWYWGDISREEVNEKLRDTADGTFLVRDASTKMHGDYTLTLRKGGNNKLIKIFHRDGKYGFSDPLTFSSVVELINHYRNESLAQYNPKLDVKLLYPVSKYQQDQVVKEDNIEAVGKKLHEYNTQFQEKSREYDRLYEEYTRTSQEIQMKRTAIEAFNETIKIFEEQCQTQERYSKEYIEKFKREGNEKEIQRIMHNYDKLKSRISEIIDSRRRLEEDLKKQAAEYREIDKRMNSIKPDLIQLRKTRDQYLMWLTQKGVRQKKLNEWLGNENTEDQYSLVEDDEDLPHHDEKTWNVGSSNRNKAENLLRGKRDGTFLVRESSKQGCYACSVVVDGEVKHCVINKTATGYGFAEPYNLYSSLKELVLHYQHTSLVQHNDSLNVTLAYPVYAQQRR
measuredQuantity: IC50

Consider the worked cases shown below.
CNC(=O)c1cnc(Nc2ncccc2C(C)C)c(NC(=O)c2csc3ccccc23)c1
1 to 10 µM
Cc1ccccc1Nc1ncc(C(=O)NCc2cn(C)nc2C)cc1NC(=O)c1csc2ccccc12
≤ 0.1 µM
Cc1ccccc1Nc1ncc(C(=O)NCc2nnc3ccccn23)cc1NC(=O)c1cc(F)cc(C(F)(F)F)c1
1 to 10 µM

List IC50 for every entry below, keeping the order given.
1. CNC(=O)c1cnc(Nc2ccccc2C)c(NC(=O)c2cc(Br)cc(C(C)C)c2)c1
2. CNC(=O)c1cnc(Nc2ccccc2C)c(NC(=O)c2cc3c(Cl)cncc3s2)c1
3. CNC(=O)c1cnc(Nc2ccccc2C)c(NC(=O)c2ccc(C(F)(F)F)n2C)c1
4. CNC(=O)c1cnc(Nc2ccccc2C)c(NC(=O)c2nc3ccccn3c2C)c1
5. CNC(=O)c1cnc(Nc2cncc(F)c2)c(NC(=O)c2csc3ccccc23)c1
6. Cc1ccccc1Nc1ncc(C(=O)NCc2ccc3c(c2)OCCO3)cc1NC(=O)c1csc2ccccc12
7. CNC(=O)c1cnc(Nc2ccccc2C)c(NC(=O)c2cnn3cccc(Br)c23)c1

A)
1: 10 to 100 µM; 2: 10 to 100 µM; 3: 10 to 100 µM; 4: 10 to 100 µM; 5: 1 to 10 µM; 6: ≤ 0.1 µM; 7: 1 to 10 µM

These entries and their values trace back to patent US20250090540A1.
